Values from patent US20240002497A1

Overview of recorded IC50 for various binders
- subject of test: T1, huNav1.7α + β1-β2-β3 (human, UniProt Q15858 1-1988; A5A6L6 19-218; O60939 30-215; Q2KI11 23-215)
- T1 construct: also called huNav1.7-beta1-beta2-beta3; huNav1.7-β1-β2-β3
- measurement notes: competition FACS vs EC25 of F103275B05(N93R), CHO FlpIn
Field: value (include unit after the number)

Use these answered entries as a reference point.
[
  {
    "binder": "F010302378 (bispecific antibody, also called F0103275B05(E1D, N93R)-50GS-F0103495F09-FLAG3-HIS6) DVQLVESGGGLVQPGGSLRLSCAASGSIFNINSMAWYRRAPGKQRELVASSTNGGSTNYADSVKGRFTISRDNAKRVYLQMNSLTPEDTAVYYCRALLQPSIYDISRTYWGQGTLVTVSSGGGGSGGGGSGGGGSGGGGSGGGGSGGGGSGGGGSGGGGSGGGGSGGGGSEVQLVESGGGLVQAGSSLSLSCAASGRALSTYAMGWFRQAPGKEREFVARISRSGITTYYTDSVKGRFTISRDRAKDTVYLQMNSLKPEDTAIYLCAADASTNPAGYYLRNRYDYWGQGTLVTVSSGAADYKDHDGDYKDHDIDYKDDDDKGAAHHHHHH",
    "IC50": "10 nM"
  },
  {
    "binder": "F010300468 (VHH, also called F0103275B05(N93R) + FLAG3-HIS6; F103275B05(N93R) + FLAG3-HIS6) VHH: EVQLVESGGGLVQPGGSLRLSCAASGSIFNINSMAWYRRAPGKQRELVASSTNGGSTNYADSVKGRFTISRDNAKRVYLQMNSLTPEDTAVYYCRALLQPSIYDISRTYWGQGTLVTVSS",
    "IC50": "130 nM"
  },
  {
    "binder": "F010302375 (bispecific antibody, also called F0103275B05(E1D, N93R)-50GS-F0103478E09(L108Q)-FLAG3-HIS6) DVQLVESGGGLVQPGGSLRLSCAASGSIFNINSMAWYRRAPGKQRELVASSTNGGSTNYADSVKGRFTISRDNAKRVYLQMNSLTPEDTAVYYCRALLQPSIYDISRTYWGQGTLVTVSSGGGGSGGGGSGGGGSGGGGSGGGGSGGGGSGGGGSGGGGSGGGGSGGGGSEVQLVESGGGLVQAGGSLRLSCAASGRAFSTLAMGWFRQAPGKEREFVAAISRNGNNSATGDSLKGRFTISRDSTKSTVFLQMNTLKPEDTAVYYCAAISTPSASHPYVRKESYRYWGQGTQVTVSSGAADYKDHDGDYKDHDIDYKDDDDKGAAHHHHHH",
    "IC50": "12 nM"
  }
]

Requested read-out: IC50. Entry: F010302377 (bispecific antibody, also called F0103275B05(E1D, N93R)-50GS-F0103492E09-FLAG3-HIS6) DVQLVESGGGLVQPGGSLRLSCAASGSIFNINSMAWYRRAPGKQRELVASSTNGGSTNYADSVKGRFTISRDNAKRVYLQMNSLTPEDTAVYYCRALLQPSIYDISRTYWGQGTLVTVSSGGGGSGGGGSGGGGSGGGGSGGGGSGGGGSGGGGSGGGGSGGGGSGGGGSEVQLVESGGGLVQAGGSLRLSCAASKSILSFAYMRWYRQAPGKQREFVASIAIGGATSYTDSVKGRFTISRDNAKNTVYLQMNSLKPEDTAVYYCSAPAGQYRGQGTLVTVSSGAADYKDHDGDYKDHDIDYKDDDDKGAAHHHHHH
4.1 nM
